- Experimental Details: in vivo
- Parameters: species or system mice
- Run Conditions: male, C57BL/6J, mouse, ip, 30 mg/kg
Observable: MRT

| Molecule | Result |
| --- | --- |
| CCN(CC)C(=O)C1(c2ccccc2)CC1CN (racemic) [milnacipran] | 58.3 min |

###

- Experimental Details: in vivo
- Set-up: species or system mice
- Run Conditions: male, C57BL/6J, mouse, iv, 30 mg/kg

| Compound | AUC(0-t) [ng·h/mL] |
| --- | --- |
| CCN(CC)C(=O)C1(c2ccccc2)CC1CN (racemic) | 10400 |

###

- Experimental Details: in vivo
- Set-up: species or system mice
- Run Conditions: male, C57BL/6J, mouse, ip, 30 mg/kg

| Compound | AUC(0-inf) |
| --- | --- |
| CCN(CC)C(=O)C1(c2ccccc2)CC1CN (racemic) | 11000 ng·h/mL |

###

- Experimental Details: in vivo
- Set-up: species or system mice
- Run Conditions: male, C57BL/6J, mouse, 30 mg/kg

| Compound | bioavailability, % |
| --- | --- |
| CCN(CC)C(=O)C1(c2ccccc2)CC1CN (racemic) | 92.5 |

###

- Experimental Details: in vivo
- Parameters: species or system mice
- Run Conditions: male, C57BL/6J, mouse, ip, 30 mg/kg, Tmax (brain)

| Molecule | Tmax |
| --- | --- |
| CCN(CC)C(=O)C1(c2ccccc2)CC1CN (racemic) [milnacipran] | ~1 h |

###

- Experimental Details: in vivo
- Design: species or system mice
- Run Conditions: male, C57BL/6J, mouse, iv, 30 mg/kg
Observable: clearance (mL/min/kg)

| Molecule | Observable | Number |
| --- | --- | --- |
| CCN(CC)C(=O)C1(c2ccccc2)CC1CN (racemic) | clearance | 42.7 |
